# measuredTarget: human β-glucuronidase (Homo sapiens, UniProt P08236)
# Sequence (P08236 23-651): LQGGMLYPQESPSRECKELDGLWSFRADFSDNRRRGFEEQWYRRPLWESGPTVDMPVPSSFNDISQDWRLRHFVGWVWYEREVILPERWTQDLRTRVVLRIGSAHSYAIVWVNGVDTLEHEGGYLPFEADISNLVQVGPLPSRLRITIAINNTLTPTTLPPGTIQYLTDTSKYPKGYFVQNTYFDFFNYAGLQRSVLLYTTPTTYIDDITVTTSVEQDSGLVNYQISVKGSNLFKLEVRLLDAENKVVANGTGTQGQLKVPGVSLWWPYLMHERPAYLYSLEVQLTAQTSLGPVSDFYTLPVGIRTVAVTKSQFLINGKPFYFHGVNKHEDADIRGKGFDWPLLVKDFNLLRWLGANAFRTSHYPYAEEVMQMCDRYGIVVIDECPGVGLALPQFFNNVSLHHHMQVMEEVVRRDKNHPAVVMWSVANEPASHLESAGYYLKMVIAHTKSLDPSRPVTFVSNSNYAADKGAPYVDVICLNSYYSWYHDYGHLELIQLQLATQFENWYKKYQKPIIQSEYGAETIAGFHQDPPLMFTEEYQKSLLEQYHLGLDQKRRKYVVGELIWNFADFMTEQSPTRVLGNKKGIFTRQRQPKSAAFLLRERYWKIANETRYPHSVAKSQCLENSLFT
Counter-ions that a name gives are not always drawn.
Collected pIC50 values appear next to each entry.
Worth noting: pIC50 values are minus log10 of concentrations stated in mol/L.

molecule	measuredTarget	pIC50
O=C(Nc1ccccc1)O/N=C1\O[C@H](P(=O)(O)O)[C@@H](O)[C@H](O)[C@H]1O	human β-glucuronidase (Homo sapiens, UniProt P08236)	1.96

Consider the record given below.
Fill in pIC50 for record O=C(Nc1ccccc1)O/N=C1\O[C@H](C(=O)O)[C@@H](O)[C@H](O)[C@H]1O [Example 1, (sodium salt)]
6.22
